# measuredTarget: T1, His-tagged, full-length PCSK9 (human, UniProt Q8NBP7 31-692)
# T1 construct: The secreted protein is autocleaved into a prodomain and a catalytic/Cys-rich chain that starts at S153; also called His-PCSK9
# T1 sequence (Q8NBP7 other isoform, or with tags, fused parts or gaps limits assumed): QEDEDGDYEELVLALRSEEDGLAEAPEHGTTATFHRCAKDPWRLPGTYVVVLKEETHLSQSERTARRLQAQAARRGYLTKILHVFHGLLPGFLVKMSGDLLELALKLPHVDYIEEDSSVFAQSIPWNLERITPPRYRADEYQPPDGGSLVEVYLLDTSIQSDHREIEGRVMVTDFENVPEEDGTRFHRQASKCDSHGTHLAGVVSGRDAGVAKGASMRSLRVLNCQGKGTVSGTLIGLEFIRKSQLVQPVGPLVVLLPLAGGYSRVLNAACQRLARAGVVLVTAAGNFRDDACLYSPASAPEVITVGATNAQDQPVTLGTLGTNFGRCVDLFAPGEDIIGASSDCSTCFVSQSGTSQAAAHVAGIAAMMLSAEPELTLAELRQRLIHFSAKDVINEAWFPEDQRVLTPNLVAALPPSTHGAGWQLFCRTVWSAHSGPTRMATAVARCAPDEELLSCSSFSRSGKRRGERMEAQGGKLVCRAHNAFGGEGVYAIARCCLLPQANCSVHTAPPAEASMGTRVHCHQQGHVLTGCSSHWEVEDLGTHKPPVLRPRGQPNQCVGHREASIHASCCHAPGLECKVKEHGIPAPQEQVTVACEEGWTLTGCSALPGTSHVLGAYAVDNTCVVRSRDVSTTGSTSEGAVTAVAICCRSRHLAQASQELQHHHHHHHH
# protocolDescription: TR-FRET competition; His-PCSK9, competitor EGF(A)-Fc
pIC50: −log10 of the molar value. Ends that are not written are not given here.
Entries and their measured pIC50 follow.

# pIC50 (binder: WNLVRIGLTR (also: further groups not given here, Structure printed only as a drawing) [Compound 173] ) is ≤ 4.30

The binder identified as WNLVRIGLTR (also: further groups not given here, Structure printed only as a drawing) [Compound 167] registered its pIC50 at ≤ 4.30

Turning to the following binder.
Form field pIC50, entry WNLVRIGLTR (also: further groups not given here, Structure printed only as a drawing) [Compound 168] : ≤ 4.30
